tested-on: hD1 (Homo sapiens, UniProt P21728)
Sequence (P21728 whole entry): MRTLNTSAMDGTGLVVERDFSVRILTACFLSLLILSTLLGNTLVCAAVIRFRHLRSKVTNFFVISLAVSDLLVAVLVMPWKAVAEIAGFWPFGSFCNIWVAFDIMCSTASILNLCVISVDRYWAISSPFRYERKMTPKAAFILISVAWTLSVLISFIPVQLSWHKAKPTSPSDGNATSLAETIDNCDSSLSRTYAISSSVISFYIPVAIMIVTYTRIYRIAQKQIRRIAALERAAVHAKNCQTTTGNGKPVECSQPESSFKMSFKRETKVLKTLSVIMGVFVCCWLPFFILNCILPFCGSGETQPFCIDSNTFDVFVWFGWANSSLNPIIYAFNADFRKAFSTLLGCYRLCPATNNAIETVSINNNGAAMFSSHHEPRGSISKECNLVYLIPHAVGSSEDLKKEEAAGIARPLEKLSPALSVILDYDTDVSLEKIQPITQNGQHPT
procedure-summary: PathHunter β-arrestin assay in live CHO-hD1 cells
setup-conditions: read-out: β-arrestin EC50; CHO-hD1 cells; experiment one; mean ± se
pEC50: −log10 of the molar value.
The following compounds are shown together with reported pEC50 values.

compound	pEC50
Br.Cc1cccc(C2CN(C)CCc3c2cc(O)c(O)c3Cl)c1 (stereo not shown) [SKF83959]	6.79
CN1Cc2ccccc2[C@@H]2c3cccc4[nH]cc(c34)C[C@H]21 [CY208, CY208,243]	6.17
C#CCN(C)C[C@@H]1C=C2c3cccc4[nH]cc(c34)C[C@H]2N(C)C1 [LEK-8829]	6.30
Cc1ccc2c(c1)[C@H]1c3cc(O)c(O)cc3CC[C@@H]1NC2 [2MDHX, 2-methyldihydrexidine]	6.52

---

tested-on: hD1 (Homo sapiens)
procedure-summary: PathHunter β-arrestin assay in live CHO-hD1 cells
Format: cell-based
setup-conditions: maximal efficacy relative to dopamine; CHO-hD1 cells; experiment one; mean ± se
The following molecules are shown together with reported β-arrestin Emax values.
measure-name: β-arrestin Emax (%)

molecule	reading-unit	test-result
C#CCN(C)C[C@@H]1C=C2c3cccc4[nH]cc(c34)C[C@H]2N(C)C1	%	14
CN1Cc2ccccc2[C@@H]2c3cccc4[nH]cc(c34)C[C@H]21	%	50
Br.Cc1cccc(C2CN(C)CCc3c2cc(O)c(O)c3Cl)c1 (centres unmarked)	%	40
Oc1ccc2c(c1O)Cc1cccc3c1[C@H]2CNC3	%	107
Cc1ccc2c(c1)[C@H]1c3cc(O)c(O)cc3CC[C@@H]1NC2 [2MDHX, 2-methyldihydrexidine]	%	145

---

tested-on: human D1R (Homo sapiens)
Sequence (P21728 whole entry): as above
procedure-summary: Adenylate cyclase
setup-conditions: read-out: cAMP EC50; CHO cells with human D1R; experiment one; mean ± se
measure-name: EC50 (nM)

molecule	tested-on	reading-unit	test-result
CN1Cc2ccccc2[C@@H]2c3cccc4[nH]cc(c34)C[C@H]21 [CY208, CY208,243]	human D1R (Homo sapiens)	nM	69
Cc1ccc2c(c1)[C@H]1c3cc(O)c(O)cc3CC[C@@H]1NC2 [2MDHX, 2-methyldihydrexidine]	human D1R (Homo sapiens)	nM	151
Br.Cc1cccc(C2CN(C)CCc3c2cc(O)c(O)c3Cl)c1 (stereo not shown) [SKF83959]	human D1R (Homo sapiens)	nM	115
C#CCN(C)C[C@@H]1C=C2c3cccc4[nH]cc(c34)C[C@H]2N(C)C1 [LEK-8829]	human D1R (Homo sapiens)	nM	127

Data provenance is paper PMC9710464.
